biological target: Genome polyprotein (West Nile virus) (UniProt P06935); experiment: Inhibition of West Nile virus NS2B-NS3 protease at 50 uM
Sequence (P06935 whole entry): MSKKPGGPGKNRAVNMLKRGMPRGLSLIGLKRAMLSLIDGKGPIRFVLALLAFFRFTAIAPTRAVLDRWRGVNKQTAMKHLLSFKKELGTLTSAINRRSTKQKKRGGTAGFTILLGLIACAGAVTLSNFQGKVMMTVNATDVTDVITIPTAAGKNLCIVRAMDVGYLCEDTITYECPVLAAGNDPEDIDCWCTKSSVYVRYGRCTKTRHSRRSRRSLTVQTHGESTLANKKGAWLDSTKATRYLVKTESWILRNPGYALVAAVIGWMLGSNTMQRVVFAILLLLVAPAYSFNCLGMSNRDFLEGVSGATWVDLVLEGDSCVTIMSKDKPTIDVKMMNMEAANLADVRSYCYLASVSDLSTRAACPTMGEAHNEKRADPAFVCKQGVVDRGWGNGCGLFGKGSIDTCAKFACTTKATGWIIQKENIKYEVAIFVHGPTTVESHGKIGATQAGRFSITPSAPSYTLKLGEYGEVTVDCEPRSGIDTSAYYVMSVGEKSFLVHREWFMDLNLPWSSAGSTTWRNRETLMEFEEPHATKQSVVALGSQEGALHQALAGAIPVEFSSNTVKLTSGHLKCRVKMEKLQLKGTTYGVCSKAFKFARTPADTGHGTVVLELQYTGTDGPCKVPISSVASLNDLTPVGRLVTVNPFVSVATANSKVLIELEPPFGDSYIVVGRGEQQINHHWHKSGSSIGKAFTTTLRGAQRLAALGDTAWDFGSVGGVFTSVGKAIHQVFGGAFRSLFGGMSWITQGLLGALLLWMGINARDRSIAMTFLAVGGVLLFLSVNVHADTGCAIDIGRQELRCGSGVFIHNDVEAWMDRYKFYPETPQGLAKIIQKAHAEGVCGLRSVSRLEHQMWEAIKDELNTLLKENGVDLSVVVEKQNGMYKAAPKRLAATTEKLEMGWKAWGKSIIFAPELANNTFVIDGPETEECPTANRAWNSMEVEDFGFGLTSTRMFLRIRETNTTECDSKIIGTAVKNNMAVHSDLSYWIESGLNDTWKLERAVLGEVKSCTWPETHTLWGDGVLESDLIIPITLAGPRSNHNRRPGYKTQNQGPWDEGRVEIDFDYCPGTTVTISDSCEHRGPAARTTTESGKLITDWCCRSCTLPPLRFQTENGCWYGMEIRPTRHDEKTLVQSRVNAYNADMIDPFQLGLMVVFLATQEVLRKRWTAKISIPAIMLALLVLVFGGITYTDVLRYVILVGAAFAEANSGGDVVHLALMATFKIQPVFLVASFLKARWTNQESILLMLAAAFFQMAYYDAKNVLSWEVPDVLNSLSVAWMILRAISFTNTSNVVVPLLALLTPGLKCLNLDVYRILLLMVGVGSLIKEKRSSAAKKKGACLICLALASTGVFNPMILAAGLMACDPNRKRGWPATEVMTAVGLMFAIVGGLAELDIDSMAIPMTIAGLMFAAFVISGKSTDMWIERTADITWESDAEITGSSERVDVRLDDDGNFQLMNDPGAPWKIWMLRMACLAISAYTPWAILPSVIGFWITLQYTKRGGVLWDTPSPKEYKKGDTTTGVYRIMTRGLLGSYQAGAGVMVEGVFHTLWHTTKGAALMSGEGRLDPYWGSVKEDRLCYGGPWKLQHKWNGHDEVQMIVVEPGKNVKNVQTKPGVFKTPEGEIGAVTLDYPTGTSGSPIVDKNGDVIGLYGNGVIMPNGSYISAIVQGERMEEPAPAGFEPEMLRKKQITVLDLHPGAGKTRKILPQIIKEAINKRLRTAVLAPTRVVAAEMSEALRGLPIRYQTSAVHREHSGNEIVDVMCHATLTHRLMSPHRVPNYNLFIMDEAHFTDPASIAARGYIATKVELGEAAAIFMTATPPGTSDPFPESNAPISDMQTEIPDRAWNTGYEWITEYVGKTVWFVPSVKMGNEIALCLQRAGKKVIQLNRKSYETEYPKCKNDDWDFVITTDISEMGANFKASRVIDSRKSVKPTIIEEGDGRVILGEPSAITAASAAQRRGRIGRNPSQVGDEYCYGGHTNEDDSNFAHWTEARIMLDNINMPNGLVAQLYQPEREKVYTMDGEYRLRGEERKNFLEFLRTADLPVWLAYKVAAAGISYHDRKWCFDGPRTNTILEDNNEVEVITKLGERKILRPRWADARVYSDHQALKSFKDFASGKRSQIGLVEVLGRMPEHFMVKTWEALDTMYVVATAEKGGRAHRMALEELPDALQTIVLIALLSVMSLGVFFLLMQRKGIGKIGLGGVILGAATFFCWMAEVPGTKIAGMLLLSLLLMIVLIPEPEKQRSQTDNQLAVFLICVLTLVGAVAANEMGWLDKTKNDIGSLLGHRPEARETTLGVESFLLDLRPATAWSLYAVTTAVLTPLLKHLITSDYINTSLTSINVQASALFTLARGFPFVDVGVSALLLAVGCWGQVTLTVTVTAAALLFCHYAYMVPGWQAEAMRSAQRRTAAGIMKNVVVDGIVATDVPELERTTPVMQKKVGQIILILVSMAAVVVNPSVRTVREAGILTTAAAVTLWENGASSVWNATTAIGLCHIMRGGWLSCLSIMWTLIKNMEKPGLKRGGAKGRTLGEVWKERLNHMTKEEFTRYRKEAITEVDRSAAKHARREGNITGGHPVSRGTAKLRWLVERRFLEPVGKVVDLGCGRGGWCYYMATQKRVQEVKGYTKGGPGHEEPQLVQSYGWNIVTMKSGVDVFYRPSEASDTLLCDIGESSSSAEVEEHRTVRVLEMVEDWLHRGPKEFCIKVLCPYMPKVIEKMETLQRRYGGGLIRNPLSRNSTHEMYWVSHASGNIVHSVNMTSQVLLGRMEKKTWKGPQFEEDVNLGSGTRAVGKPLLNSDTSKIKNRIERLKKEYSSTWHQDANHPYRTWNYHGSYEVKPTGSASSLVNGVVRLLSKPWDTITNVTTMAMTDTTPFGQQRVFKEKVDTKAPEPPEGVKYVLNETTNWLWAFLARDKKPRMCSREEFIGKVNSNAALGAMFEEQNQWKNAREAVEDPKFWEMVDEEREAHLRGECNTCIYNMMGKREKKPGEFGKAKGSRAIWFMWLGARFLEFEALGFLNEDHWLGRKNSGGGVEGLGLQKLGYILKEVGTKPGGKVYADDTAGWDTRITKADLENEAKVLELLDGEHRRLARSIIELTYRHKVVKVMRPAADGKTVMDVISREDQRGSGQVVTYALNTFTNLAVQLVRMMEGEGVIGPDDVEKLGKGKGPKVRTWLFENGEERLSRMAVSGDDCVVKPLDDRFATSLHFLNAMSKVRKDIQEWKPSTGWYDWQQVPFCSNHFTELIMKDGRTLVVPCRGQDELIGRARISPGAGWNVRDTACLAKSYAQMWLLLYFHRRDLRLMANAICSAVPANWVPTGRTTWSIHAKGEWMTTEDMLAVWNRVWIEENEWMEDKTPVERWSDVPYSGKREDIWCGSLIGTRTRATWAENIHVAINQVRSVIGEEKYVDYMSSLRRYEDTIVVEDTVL
Assign inhibition to each entry below.

So for Cc1ccc(NC(=O)C2CC(Br)=NO2)cc1 (stereo unspecified) , the logged inhibition turned out to be 22%

So for COc1ccc(NC(=O)CC#N)cc1 , the logged inhibition turned out to be 16%

So for Cc1ccc(NC(=O)CC#N)cc1 , the logged inhibition turned out to be < 15%

So for C=CC(=O)Nc1ccc(OC)cc1 , the logged inhibition turned out to be < 15%

So for O=C(CCl)Nc1ccc([N+](=O)[O-])cc1 , the logged inhibition turned out to be < 15%

So for CCCCC(N)C(=O)OC (stereo unspecified) , the logged inhibition turned out to be < 15%

So for N#CCC(=O)Nc1ccc([N+](=O)[O-])cc1 , the logged inhibition turned out to be < 15%

So for O=C(Nc1ccc([N+](=O)[O-])cc1)C1CC(Br)=NO1 (stereo unspecified) , the logged inhibition turned out to be < 15%

So for C=CC(=O)Nc1ccc([N+](=O)[O-])cc1 , the logged inhibition turned out to be < 15%

So for O=C(NC1CCCC1)C1CC(Br)=NO1 (stereo unspecified) , the logged inhibition turned out to be < 15%

So for O=C(CCl)NCc1ccccc1 , the logged inhibition turned out to be < 15%

So for N#CCNC(=O)c1ccccc1 , the logged inhibition turned out to be 23%

So for C=CC(=O)NCCc1ccccc1 , the logged inhibition turned out to be < 15%

So for C=CC(=O)NC1CCCC1 , the logged inhibition turned out to be < 15%

So for C=CCNC , the logged inhibition turned out to be < 15%

So for CCCCNC(=O)C[S+](C)C , the logged inhibition turned out to be < 15%

So for O=C(CCl)Nc1ccc(F)cc1 , the logged inhibition turned out to be < 15%

So for N#CCC(=O)NCCc1ccccc1 , the logged inhibition turned out to be 22%

So for C[S+](C)CC(=O)NCCc1ccccc1 , the logged inhibition turned out to be < 15%

So for O=C(Nc1ccc(F)cc1)n1ccnc1 , the logged inhibition turned out to be < 15%

So for C[S+](C)CC(=O)Nc1ccc(F)cc1 , the logged inhibition turned out to be < 15%

So for N#CCC(=O)Nc1ccccc1 , the logged inhibition turned out to be < 15%

So for O=C(Nc1ccc([N+](=O)[O-])cc1)n1ccnc1 , the logged inhibition turned out to be < 15%

So for N#CCC(=O)NCc1ccccc1 , the logged inhibition turned out to be 18%

So for C=CC(=O)NCc1ccccc1 , the logged inhibition turned out to be < 15%

So for N#CCC(=O)NC1CCCC1 , the logged inhibition turned out to be < 15%
